Below is a list of entries, each paired with its recorded IC50 value.
molecular target: UniProt:P07711
Sequence (P07711 114-333): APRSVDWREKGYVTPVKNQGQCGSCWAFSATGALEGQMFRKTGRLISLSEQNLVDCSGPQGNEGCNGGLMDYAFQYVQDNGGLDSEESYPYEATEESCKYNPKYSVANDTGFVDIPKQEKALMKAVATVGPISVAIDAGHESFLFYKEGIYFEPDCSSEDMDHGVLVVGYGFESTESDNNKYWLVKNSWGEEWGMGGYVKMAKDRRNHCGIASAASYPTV

Previously resolved entries follow.
N#C[C@H](NC(=O)[C@@H]1CCCN1C(=O)OCc1ccccc1)c1ccccc1 [10.2]; > 10 µM
COc1cc(C(C#N)NC(=O)[C@@H]2CCCN2C(=O)OCc2ccccc2)ccc1OCc1ccccc1 (mixture of isomers) [10.28]; > 10 µM
N#CC(NC(=O)[C@@H]1CCCN1C(=O)OCc1ccccc1)c1cccc(Br)c1 (mixture of isomers) [10.22]; > 10 µM
COc1ccc(C(C#N)NC(=O)[C@@H]2[C@H](C)CCN2C(=O)OCc2ccccc2)cc1OC (mixture of isomers) [10.11]; > 10 µM

State its IC50 on UniProt:P07711: N#CC(NC(=O)[C@@H]1CCCN1C(=O)Cc1cccc(Br)c1)c1ccc2c(c1)OCO2 (stereo partly shown) [11.1]
7 µM

Under UniProt:P07711: IC50 value of N#CC(NC(=O)[C@@H]1CCCN1C(=O)CCC1CCCC1)c1ccc2c(c1)OCO2 (mixture of isomers) [10.32] ?
> 10 µM

Form: Entry = COc1ccc(C(C#N)NC(=O)[C@@H]2CCCN2C(=O)Cc2cccc(Br)c2)cc1OC (stereo partly shown) [11.2] | System = UniProt:P07711 | IC50 = ____
> 10 µM

* * *

molecular target: human liver cathepsin B (Homo sapiens)
observed-property: IC50 (nM)

The examples below pair each entry with its known result.
COc1ccc(C(C#N)NC(=O)[C@@H]2CCCN2C(=S)NCc2ccco2)cc1OC (mixture of isomers) [10.14]; 6200
N#CC(NC(=O)[C@@H]1CCCN1C(=O)OCc1ccccc1)c1ccc2c(c1)OCO2 (mixture of isomers) [10.9]; 9500
N#CC(NC(=O)[C@@H]1CCCN1C(=O)Cc1cccc(Br)c1)c1ccc2c(c1)OCO2 (stereo partly shown) [11.1]; 2000
N#CC(NC(=O)[C@@H]1CCCN1C(=O)COCc1ccccc1)c1ccc2c(c1)OCO2 (mixture of isomers) [10.33]; 2000

[P] N#C[C@H](NC(=O)[C@@H]1CCCN1C(=O)OCc1ccccc1)c1ccccc1 [10.2]
[Q] N#CC(NC(=O)[C@@H]1CCCN1C(=O)CCC1CCCC1)c1ccc2c(c1)OCO2 (mixture of isomers) [10.32]
Which of the two gives a bigger number for IC50: P or Q ? Which one? Tell me its label.
P

* * *

Biological target: human recombinant cathepsin K (Homo sapiens)
Sequence (P43235 115-329): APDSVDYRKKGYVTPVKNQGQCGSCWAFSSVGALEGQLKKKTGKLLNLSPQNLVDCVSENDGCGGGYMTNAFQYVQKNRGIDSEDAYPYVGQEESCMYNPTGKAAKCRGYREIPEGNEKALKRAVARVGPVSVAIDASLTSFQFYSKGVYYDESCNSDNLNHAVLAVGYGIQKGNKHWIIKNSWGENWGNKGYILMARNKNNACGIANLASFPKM
Experiment: cathepsin K inhibitory activity (fluorogenic substrate Z-Leu-Arg-MCA)
Settings: room temperature, enzyme 1 nM, substrate 5 μM, pH 5.5
observed-property: IC50 (µM)

These solved cases illustrate the format of a correct answer.
N#CC(NC(=O)[C@@H]1CCCN1C(=O)Cc1ccc(Br)cc1)c1ccc2c(c1)OCO2 (stereo partly shown); 0.026
N#CC(NC(=O)[C@@H]1CCCN1C(=O)OCc1ccccc1)c1cccc(Br)c1 (mixture of isomers); 0.016

[a] N#CC(NC(=O)[C@@H]1CCCN1C(=O)Cc1cccc(Br)c1)c1ccc2c(c1)OCO2 (stereo partly shown)
[b] N#CC(NC(=O)[C@@H]1CCCN1C(=O)COCc1ccccc1)c1ccc2c(c1)OCO2 (mixture of isomers)
Compare a and b and name the one whose reported IC50 is smaller. Respond using the label that marks the chosen record.
a
(a: 0.015 µM, b: 0.027 µM)
